Please respond with reported growth for every item in the list.
Tested on: HT29 colon
Assay: NCI-60 one-dose screen, 48 h (100 = growth as untreated, 0 = no growth, -100 = all killed)
Details: 10 µM unless noted
About 83,000 compounds went through this panel and 20% of them were active in at least one assay; those are over-represented in the sample as a whole.
Give bare numbers, in %.

{"compound": "CC(=O)C1CCC2C3CC(C)=C4CC(O)CCC4(C)C3CCC12C (stereo not given)", "growth (%)": 96.4}

Provide growth for all items below, preserving their order.
1. C#CCNc1nc(NCCNC(=O)CCl)nc(N(C)CCCCc2ccccc2)n1
2. CCN(CC)CCNC(=O)n1cc(-c2ccncc2)c(-c2cc(Cl)cc(OC)c2)n1
3. COc1ccc(-c2cc(-c3cc4ccccc4oc3=O)n(-c3ccccc3)n2)cc1
4. CC1OC(n2c3ccccc3c3c4c(c5c6ccccc6[nH]c5c32)C(=O)N(CCN2CCOCC2)C4=O)CC(O)C1O (stereo not given)

[109, 31.3, 83.8, 13.4]

---

Test system: UO-31 renal
Assay: NCI-60 one-dose screen, 48 h (100 = growth as untreated, 0 = no growth, -100 = all killed)
Settings: 10 µM unless noted
This is part of a sample that, as a whole, favours compounds with a hit. Of some 83,000 tested, about 20% had one in any assay.
// n strictly below 80% in growth; y otherwise

{"compound": "Cc1nn(-c2cccc(Cl)c2)c(C)c1N=Nc1ccc(Br)cc1", "target_under_test": "UO-31 renal", "assigned_category": "y"}

In plain terms: is recorded growth at least 80% for "COc1cc2c(=O)n(CCCN(C)C)c3c4cc[nH]c4ncc3c2cc1OC" ?
n

In plain terms: is recorded growth at least 80% for CCOC(=O)C1C(=O)C=C(c2ccccc2)CC1c1sc(N(C)Cc2ccccc2)nc1Cl (stereo unspecified) ?
n

---

System: BT-549 breast
Experiment: NCI-60 one-dose screen, 48 h (100 = growth as untreated, 0 = no growth, -100 = all killed)
Conditions: 10 µM unless noted
Compounds without any hit were thinned out: in the full panel of roughly 83,000, 20% have a hit.
readout_name: growth (%)
Give bare numbers, in %.

Known growth results, listed for orientation:
{"compound": "CCCCCCCC/C=C/CCCCCCCC1=NC(C)(C)CN1c1ccccc1", "readout_name": "growth", "assay_result": 105}
{"compound": "CC(C)(C)c1ccc(C(=O)Nc2sc3cc(O)ccc3c2C(N)=O)cc1", "readout_name": "growth", "assay_result": 85.4}
{"compound": "CCOC(=O)c1ccc(NC(=O)CSC(N)=O)cc1", "readout_name": "growth", "assay_result": 93.8}
{"compound": "Cn1c(=O)c2c(nc(N/N=C/c3ccccc3Cl)n2C)n(C)c1=O", "readout_name": "growth", "assay_result": 102}
{"compound": "C=C(C)[C@@H]1CC[C@]2(C(=O)O)CC[C@]3(C)[C@H](CC[C@@H]4[C@@]5(C)C[C@@H](CC#Cc6ccc(C(C)=O)s6)[C@H](O)C(C)(C)[C@@H]5CC[C@]43C)[C@@H]12", "readout_name": "growth", "assay_result": 53.1}
{"compound": "CCCCCCCCCCCC1=NC(C)(C)CN1CCO", "readout_name": "growth", "assay_result": 80.6}
{"compound": "Cc1cc(C#Cc2ccc(C(C)(C)C)cc2)ccc1-n1c(/C=C/c2c(Cl)cccc2Cl)nc2ccccc2c1=O", "readout_name": "growth", "assay_result": 105}
{"compound": "COC(=O)C(Br)(C(=O)OC)C(Br)C(Br)C(Br)c1ccccc1 (stereo not given)", "readout_name": "growth", "assay_result": 108}

Provide growth for all items below, preserving their order.
1. Clc1cccc(CNc2c3ccccc3nc3ccccc23)c1
2. CN1C(=O)C(C(=O)/C=C/c2ccccc2C(=O)O)C(=O)N(C)C1=O

59.1
90.4
